These entries and their values trace back to patent US5565455A.

assay.system: 5-HT1A (Homo sapiens, UniProt P08908)
Sequence (P08908 whole entry, species assumed): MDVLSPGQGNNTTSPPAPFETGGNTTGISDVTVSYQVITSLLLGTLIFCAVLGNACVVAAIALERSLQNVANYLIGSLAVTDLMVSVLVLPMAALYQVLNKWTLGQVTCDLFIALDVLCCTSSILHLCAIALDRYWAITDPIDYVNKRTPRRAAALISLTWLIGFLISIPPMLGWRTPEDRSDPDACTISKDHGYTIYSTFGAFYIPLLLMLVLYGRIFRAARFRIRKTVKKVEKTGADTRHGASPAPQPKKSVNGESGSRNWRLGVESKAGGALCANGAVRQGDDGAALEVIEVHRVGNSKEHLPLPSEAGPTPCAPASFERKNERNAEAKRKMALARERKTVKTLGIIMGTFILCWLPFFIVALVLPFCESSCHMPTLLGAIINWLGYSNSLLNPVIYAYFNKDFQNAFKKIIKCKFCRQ
protocol.details: biochemical
Format: binding
test.readout: Ki (nM)
Express the result in nM but write the number alone.

Lab request: please report Ki under test system 5-HT1A (Homo sapiens, UniProt P08908) for CCNC(=O)N1CCN(CCCC(c2ccc(F)cc2)c2ccc(F)cc2)CC1 [Amperozide]
805
